- study-target: human GLP-1R (Homo sapiens, UniProt P43220, G168S)
- Sequence (P43220 24-463 G168S limits assumed): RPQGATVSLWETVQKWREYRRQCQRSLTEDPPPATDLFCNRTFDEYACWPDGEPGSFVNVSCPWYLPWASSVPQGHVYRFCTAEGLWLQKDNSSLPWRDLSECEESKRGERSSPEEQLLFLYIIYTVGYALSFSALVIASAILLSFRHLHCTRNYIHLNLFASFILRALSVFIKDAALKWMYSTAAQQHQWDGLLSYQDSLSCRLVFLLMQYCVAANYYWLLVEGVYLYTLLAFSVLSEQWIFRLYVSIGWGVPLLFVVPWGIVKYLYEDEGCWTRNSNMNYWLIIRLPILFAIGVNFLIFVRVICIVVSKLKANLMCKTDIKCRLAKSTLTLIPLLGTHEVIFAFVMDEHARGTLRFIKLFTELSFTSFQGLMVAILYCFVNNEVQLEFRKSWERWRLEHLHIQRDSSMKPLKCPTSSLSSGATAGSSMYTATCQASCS
- assay-procedure: CHO GLP-1R Clone H6—Assay 1: HTRF cAMP cell-based functional agonist assay (high GLP-1R density)
- condition-details: Assay 1 EC50 (nM), CHO GLP-1R Clone H6, cAMP HTRF; geometric mean
Listed here: items and their measured EC50.
Dear colleague, please send the value followed by its unit.

Guide cases for EC50, answers given:
>>> reported_measurement("CO[C@H]1C[C@@H](Cn2c(CN3CCC(c4cccc(OCc5ccc(Cl)cc5F)n4)CC3)nc3ccc(C(=O)O)cc32)C1 [Example 1A-28]")
"300 nM"
>>> reported_measurement("COCCn1c(CN2CCC(c3cccc(OCc4ccc(Cl)cc4F)n3)CC2C)nc2ccc(C(=O)O)cc21 (single isomer, unassigned) [Example 13A-02]")
"420 nM"

Turning now to a further molecule:
Request: Give reported EC50 value for COCCn1c(CN2CC[C@@H](c3cccc(OCc4ccc(Cl)cc4F)n3)[C@H](C)C2)nc2ccc(C(=O)O)cc21 (racemic) [Example 1A-26]
Result: 70 nM
